target of assay: T1, Pin3, Q06449
T1 sequence (Q06449 53-122, looked up): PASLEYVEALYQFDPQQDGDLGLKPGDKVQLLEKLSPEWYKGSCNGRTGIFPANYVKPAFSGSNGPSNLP
test summary: SPOT array
experimental parameters: median of control spots 2171
measure name: SPOT intensity

Field: example entries. Status: answers known.
| binder | observed measurement |
| --- | --- |
| VFQFQMPTTPISTKM | 125 |
| RMVRRRPLRVQFSAR | 70 |
| STPQTMRQAPKRPDA | 192 |
| QPPLPSSAPPIPTSH | 0 |
| PELAPKREAPKPPAN | 0 |

a = DHPKGPPPPPPPDEK
b = EAEEAAPQLPSRSSA
c = NILKRRPLKLEAPSK
d = RPVPPPPPMRTTTEG
Incoming: Put these in order: smallest SPOT intensity first, largest last. API: response body holds the labels in the requested order.
Outgoing: c, b, a, d

I = NLDRSKISLPDFDDE
II = LLRRTIPKRPFYHVL
Incoming: Lab note: check whether I or II shows the higher recorded SPOT intensity. // output: label of the selected item
Outgoing: I

A = NLPKRKPPKLQGPFS
B = EVTPKVPERPSRRKT
Incoming: Lab note: check whether A or B shows the higher recorded SPOT intensity. // output: label of the selected item
Outgoing: B

1 = EREKALPPIPFTTTL
2 = PVLPPPRSPNRPTLS
Incoming: Lab note: check whether 1 or 2 shows the higher recorded SPOT intensity. // output: label of the selected item
Outgoing: 2
(2: 7, 1: 2)

Each recorded value in this set is attributed to paper PMC2756588.
